B1: HDV Ribozyme (parent)
chain: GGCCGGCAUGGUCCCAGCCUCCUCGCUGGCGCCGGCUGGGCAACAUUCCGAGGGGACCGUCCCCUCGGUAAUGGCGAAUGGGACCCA

# Variants of: B1
# procedureText: self-cleavage, relative activity (ratio to wild type); higher = more cleavage; co-transcriptional
Returns one of t or f; t when self-cleavage is >= 0.2.

Reference set, count: 3
{"columns": ["variant", "classAssignment"],
 "data": [
  ["C30G A87U", "f"],
  ["C3G C63A", "t"],
  ["G31C G67C", "t"]
]}

*Q* Exam item: decide whether the reported self-cleavage for U37C C41U is at least 0.2.
*A* t

*Q* Has G53U C63G a recorded self-cleavage greater than or equal to 0.2?
*A* t

*Q* Reported self-cleavage at or above 0.2? A77C G81A
*A* f

*Q* Could you verify whether the entry C44U C49G shows self-cleavage of no less than 0.2?
*A* t

*Q* Record C18A U46G ; criterion: self-cleavage no lower than 0.2. Met?
*A* f

These measurements were taken from the RNAGym collection of RNA variant scans (doi:10.7554/elife.80360).
